System: Arthrobacter species KNK168 strain
Experiment: Inducer added during culture; (R)-DMA formation by the separated cells
Assay type: cell-based
Details: substance added to medium as inducer; reaction 30° C., 20 hours, 1% 1-(3,4-dimethoxyphenyl)-2-propanone, 1% (RS)-1-methylpropylamine
quantity: (R)-DMA Formed (%)
Just the number please, in %, no unit attached.

# input Find the measured (R)-DMA Formed: item COc1ccc(C[C@@H](C)N)cc1OC [(R)-DMA] , target or system Arthrobacter species KNK168 strain.
# output 0.9

# input Find the measured (R)-DMA Formed: item CCCC(C)N (racemic) [(RS)-1-Methylbutylamine] , target or system Arthrobacter species KNK168 strain.
# output 13.0

# input Find the measured (R)-DMA Formed: item CCC(N)CO (racemic) [(RS)-2-Amino-1-butanol] , target or system Arthrobacter species KNK168 strain.
# output 12.9

# input Find the measured (R)-DMA Formed: item CCC(C)N (racemic) [(RS)-1-Methylpropylamine] , target or system Arthrobacter species KNK168 strain.
# output 22.3

# input Find the measured (R)-DMA Formed: item CC(N)c1ccccc1 (racemic) [(RS)-1-Phenylethylamine] , target or system Arthrobacter species KNK168 strain.
# output 8.0

# input Find the measured (R)-DMA Formed: item CC(N)C(C)(C)C (racemic) [(RS)-3-Amino-2,2-dimethylbutane] , target or system Arthrobacter species KNK168 strain.
# output 18.6
